Answer each item with its documented Cmax.
assay: Long-term plasma exposure after a single SC ANA dose (56-day follow-up), plasma LC-MS/MS; format: in vivo, Sprague-Dawley rats; conditions: Sprague-Dawley, rat; analyte in plasma after single SC ANA dose 7 mg/kg, male SD rats, n = 5, 56-day follow-up; read-out: Cmax
Field format: number, assumed ng/mL, no unit text.

Query block: Item under review: NC1=Nc2ccc(Cl)c(Cl)c2CN1 [RL603] . Reported Cmax?
Result block: 1.08

Query block: Item under review: O=C1CN2Cc3c(ccc(Cl)c3Cl)N=C2N1 [Anagrelide] . Reported Cmax?
Result block: 6.78

----------
Answer each item with its documented Tmax.
assay: Long-term plasma exposure after a single SC ANA dose (56-day follow-up), plasma LC-MS/MS; type: in vivo, Sprague-Dawley rats; conditions: Sprague-Dawley, rat; analyte in plasma after single SC ANA dose 7 mg/kg, male SD rats, n = 5, 56-day follow-up; read-out: Tmax
Field format: number, assumed h, no unit text.

Query block: Item under review: NC1=Nc2ccc(Cl)c(Cl)c2CN1 . Reported Tmax?
Result block: 19.6

Query block: Item under review: O=C1CN2Cc3c(ccc(Cl)c3Cl)N=C2N1 [Anagrelide] . Reported Tmax?
Result block: 1

----------
test: PK comparison between three administration routes (IV, PO, SC), plasma LC-MS/MS; type: in vivo, Sprague-Dawley rats; details: Sprague-Dawley, rat; analyte in plasma after single ANA dose 1.0 mg/kg SC in miglyol, male SD rats, n = 5, mean ± SD
resultType: Cmax (ng/mL)
Field format: number, assumed ng/mL, no unit text.

Query block: Item under review: O=C1CN2Cc3c(ccc(Cl)c3Cl)N=C2N1 [Anagrelide] . Reported Cmax?
Result block: 12.4

----------
test: PK comparison between three administration routes (IV, PO, SC), plasma LC-MS/MS; type: in vivo, Sprague-Dawley rats; details: Sprague-Dawley, rat, plasma; single ANA dose 1.0 mg/kg SC in miglyol, male SD rats, n = 5, mean ± SD
resultType: MRT inf
Answer with the value and then the unit.

Query block: Item under review: O=C1CN2Cc3c(ccc(Cl)c3Cl)N=C2N1 [Anagrelide] . Reported MRT inf?
Result block: 48.1 h
